- System: Bacillus subtilis
- PROTOCOL_SUMMARY: Antibacterial activity against Bacillus subtilis ATCC 12711 after 24 hrs by broth micro dilution assay
- Type: functional
- PARTICULARS: ATCC 12711, 24 h
Would you kindly list MIC90 for each of these compounds?
Value expressed in µg/mL; do not type the unit.

Tell me its MIC90 given `CCn1cc(-c2nnc(S)n2/N=C/c2c(Cl)cccc2Cl)c(=O)c2ccc(C)nc21` as the entry.
31

Tell me its MIC90 given `CCn1cc(-c2nnc(S)n2/N=C/c2cccc(Br)c2)c(=O)c2ccc(C)nc21` as the entry.
16

Tell me its MIC90 given `CCn1cc(-c2nnc(S)n2/N=C/c2ccc(N(C)C)cc2)c(=O)c2ccc(C)nc21` as the entry.
16

Tell me its MIC90 given `CCn1cc(-c2nnc(S)n2/N=C/c2cccc([N+](=O)[O-])c2)c(=O)c2ccc(C)nc21` as the entry.
125

Tell me its MIC90 given `CCn1cc(-c2nnc(S)n2/N=C/c2ccc(O)cc2)c(=O)c2ccc(C)nc21` as the entry.
125

Tell me its MIC90 given `CCn1cc(-c2nnc(S)n2/N=C/c2ccc(C)cc2)c(=O)c2ccc(C)nc21` as the entry.
125

Tell me its MIC90 given `O=C(O)c1cn(C2CC2)c2cc(N3CCNCC3)c(F)cc2c1=O` as the entry.
12.5

Tell me its MIC90 given `CCc1ccc(/C=N/n2c(S)nnc2-c2cn(CC)c3nc(C)ccc3c2=O)cc1` as the entry.
63
